target.under.test: AC1 (Homo sapiens, UniProt Q08828)
Construct: expressed in transfected cells
Sequence (Q08828 whole entry): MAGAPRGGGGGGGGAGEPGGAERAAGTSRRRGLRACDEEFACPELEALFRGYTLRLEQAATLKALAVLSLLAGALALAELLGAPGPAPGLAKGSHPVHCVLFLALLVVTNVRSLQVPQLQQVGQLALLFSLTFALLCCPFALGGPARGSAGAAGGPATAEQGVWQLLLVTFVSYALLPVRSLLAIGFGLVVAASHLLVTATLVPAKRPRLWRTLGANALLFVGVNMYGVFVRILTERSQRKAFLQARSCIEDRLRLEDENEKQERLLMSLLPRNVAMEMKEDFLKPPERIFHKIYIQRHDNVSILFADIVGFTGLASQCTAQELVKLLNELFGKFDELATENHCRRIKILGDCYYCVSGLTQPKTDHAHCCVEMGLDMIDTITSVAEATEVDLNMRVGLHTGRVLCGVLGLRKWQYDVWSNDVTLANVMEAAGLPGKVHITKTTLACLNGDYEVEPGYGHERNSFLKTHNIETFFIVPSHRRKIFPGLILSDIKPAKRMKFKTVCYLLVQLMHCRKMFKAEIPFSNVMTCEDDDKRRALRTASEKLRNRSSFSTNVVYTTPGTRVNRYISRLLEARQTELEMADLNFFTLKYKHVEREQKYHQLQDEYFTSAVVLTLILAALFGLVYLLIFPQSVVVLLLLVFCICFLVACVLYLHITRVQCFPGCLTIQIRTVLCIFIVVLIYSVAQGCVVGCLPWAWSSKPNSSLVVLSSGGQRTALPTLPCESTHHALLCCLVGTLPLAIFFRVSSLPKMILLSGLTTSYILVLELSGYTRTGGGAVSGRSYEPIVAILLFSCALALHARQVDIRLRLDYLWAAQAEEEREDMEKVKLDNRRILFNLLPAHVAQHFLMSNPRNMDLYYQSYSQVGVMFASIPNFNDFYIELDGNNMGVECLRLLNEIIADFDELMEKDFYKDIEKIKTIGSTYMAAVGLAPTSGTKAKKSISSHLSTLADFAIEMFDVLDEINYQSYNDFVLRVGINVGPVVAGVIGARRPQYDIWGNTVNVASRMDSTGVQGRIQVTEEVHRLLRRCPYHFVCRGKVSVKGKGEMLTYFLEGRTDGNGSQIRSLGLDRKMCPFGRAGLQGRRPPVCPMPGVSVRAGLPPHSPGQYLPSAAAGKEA
experiment: Inhibition of A23187-mediated (Ca2+-stimulated) cAMP accumulation in HEK cells stably expressing AC1
Format: cell-based
run.conditions: HEK293; 40 μM compound; read-out: AC1 Inhibition Percentage
Short version: inhibition at 40 µM at least 90% is MET, less is NOT MET.

Below, 3 compounds whose answers are already recorded.
Prompt: Form field: inhibition at 40 µM at least 90%? Entry: "COc1ccc(CN(C/C=C/c2ccccc2)CCc2c[nH]c3ccccc23)cc1"
Completion: MET

Prompt: Same for "CN(C/C=C/c1ccc(Br)cc1)Cc1cccc2ccccc12"
Completion: MET

Prompt: Same for "Cc1ccccc1/C=C/CN(C)Cc1cccc2ccccc12"
Completion: NOT MET

---
Prompt: Form field: inhibition at 40 µM at least 90%? Entry: COc1ccc2c(c1)C(c1ccc(Br)cc1)CN(C/C=C/c1ccc(C)cc1)CC2 (stereo not drawn)
Completion: NOT MET

Prompt: Same for "CN(C/C=C/c1cccc([N+](=O)[O-])c1)Cc1cccc2ccccc12"
Completion: NOT MET

Prompt: Same for "Clc1ccc(/C=C/CN(CCc2c[nH]c3ccccc23)Cc2ccccc2)cc1"
Completion: MET
